test.protocol: Enzyme-coupled assay: transfer of acyl-moieties from MMal-CoA to the ACP
Type: biochemical
experimental.context: substrate MMal-CoA, acceptor ACP from murine FAS
property.label: kcat (s⁻¹)
Provide the reading as a plain figure in s⁻¹.

Entry Mutant A05: engineered murine acyltransferase, mutation K186E (protein) NKRPLWFICSGMGTQWRGMGLSLMRLDSFRESILRSDEAVKPLGVKVSDLLLSTDERTFDDIVHAFVSLTAIQIALIDLLTSVGLKPDGIIGHSLGEVACGYADGCLSQREAVLAAYWRGQCIKDAHLPPGSMAAVGLSWEECKQRCPAGVVPACHNSEDTVTISGPQAAVNEFVEQLKQEGVFAEEVRTGGLAFHSYFMEGIAPTLLQALKKVIREPRPRSARWLSTSIPEAQWQSSLARTSSAEYNVNNLVSPVLFQEALWHIPEHAVVLEIAPHALLQAVLKRGVKSSCTIIPLMKRDHKDNLEFFLTNLGKVHLT : reported kcat = ?
0.101
